All figures here come from patent US5298652A.

Below, each of the compounds is paired with its reported inhibition at 5 µM value.
Biological target: HSF-PLA2 (extracellular PLA2 obtained from human synovial fluid) (Homo sapiens)
Construct: extracellular enzyme obtained from human synovial fluid; from tissue; host or cells: human synovial fluid (pooled)
Sequence (P14555 21-144): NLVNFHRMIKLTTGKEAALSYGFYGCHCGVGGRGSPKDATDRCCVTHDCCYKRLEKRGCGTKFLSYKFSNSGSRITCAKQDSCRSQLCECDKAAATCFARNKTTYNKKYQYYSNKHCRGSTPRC
Test: Assay for inhibition of HSF-PLA2 in vitro
Format: biochemical
Conditions: 5 μM test compound; read-out: % Inhib of HSF-PLA2
Report only the number, with the unit % understood.

[
  {
    "compound": "CCCCCCCCCCCCCCCCCCOc1cc(OCc2ccccc2)cc(C(=O)N(CC(=O)O)CC(=O)O)c1",
    "inhibition at 5 µM, %": 55
  },
  {
    "compound": "CCCCCCCCCCCCCCCCCCOc1cccc(C(=O)NCC(=O)O)c1 [Example 74, N-[3-(Octadecyloxy)benzoyl]glycine]",
    "inhibition at 5 µM, %": 23
  },
  {
    "compound": "CCCCCCCCCCCCCCOc1ccc(C(=O)N(CC(=O)O)CC(=O)O)cc1OCCCCCCCCCCCCCC",
    "inhibition at 5 µM, %": 38
  }
]

Now take the following compound into account.
Record for `CCCCCCCCCCCCCCCCCCOc1cccc(/C=C/C(=O)N(CC(=O)O)CC(=O)O)c1` under target or system HSF-PLA2 (extracellular PLA2 obtained from human synovial fluid) (Homo sapiens): inhibition at 5 µM reported as 68
